measurement description: Inhibition of PARP1 in human A549 cells assessed as potentiation of TMZ-mediated cytotoxicity by measuring TMZ IC50 for growth inhibition at 0.5 uM by SRB assay (Rvb TMZ IC50 = 295 uM)
metric name: pIC50
Numbers only, as −log10 of the molar value.

Sample records with pIC50:
{"columns": ["smiles input", "pIC50"],
 "data": [
  ["NC(=O)c1c(F)ccc2[nH]c(-c3ccc(N4CCOCC4)cc3)nc12", 3.88],
  ["NC(=O)c1c(F)ccc2[nH]c(C3CCNCC3)nc12", 3.45]
]}

// each listed compound needs a value for pIC50
1. CCCN1CCC(c2nc3c(C(N)=O)c(F)ccc3[nH]2)CC1
2. C[C@]1(c2nc3c(C(N)=O)c(F)ccc3[nH]2)CCCN1
3. NC(=O)c1c(F)ccc2[nH]c(-c3ccc(N4CCNCC4)cc3)nc12
4. CN1CCC[C@@]1(C)c1nc2c(C(N)=O)c(F)ccc2[nH]1

Result string:
1. 3.82
2. 3.47
3. 3.73
4. 3.51

Cited source: BindingDB's records for doi:10.1016/j.bmcl.2016.06.045
